target entity: Ubiquitin-like modifier-activating enzyme ATG7 (Homo sapiens)
experimental details: Inhibition of ATG7 in human 293HEK cells assessed as inhibition of ATG7:ATG8 thioester formation after 4 hrs by Western blot analysis
quantity: IC50 (nM)
Give bare numbers, in nM.

Per the record, CSc1nn([C@H]2C[C@H](O)[C@H](COS(N)(=O)=O)O2)c2ncnc(N)c12 has IC50 of 295

----------
target entity: Ubiquitin-like modifier-activating enzyme ATG7 (Homo sapiens, UniProt O95352)
Sequence (O95352 whole entry): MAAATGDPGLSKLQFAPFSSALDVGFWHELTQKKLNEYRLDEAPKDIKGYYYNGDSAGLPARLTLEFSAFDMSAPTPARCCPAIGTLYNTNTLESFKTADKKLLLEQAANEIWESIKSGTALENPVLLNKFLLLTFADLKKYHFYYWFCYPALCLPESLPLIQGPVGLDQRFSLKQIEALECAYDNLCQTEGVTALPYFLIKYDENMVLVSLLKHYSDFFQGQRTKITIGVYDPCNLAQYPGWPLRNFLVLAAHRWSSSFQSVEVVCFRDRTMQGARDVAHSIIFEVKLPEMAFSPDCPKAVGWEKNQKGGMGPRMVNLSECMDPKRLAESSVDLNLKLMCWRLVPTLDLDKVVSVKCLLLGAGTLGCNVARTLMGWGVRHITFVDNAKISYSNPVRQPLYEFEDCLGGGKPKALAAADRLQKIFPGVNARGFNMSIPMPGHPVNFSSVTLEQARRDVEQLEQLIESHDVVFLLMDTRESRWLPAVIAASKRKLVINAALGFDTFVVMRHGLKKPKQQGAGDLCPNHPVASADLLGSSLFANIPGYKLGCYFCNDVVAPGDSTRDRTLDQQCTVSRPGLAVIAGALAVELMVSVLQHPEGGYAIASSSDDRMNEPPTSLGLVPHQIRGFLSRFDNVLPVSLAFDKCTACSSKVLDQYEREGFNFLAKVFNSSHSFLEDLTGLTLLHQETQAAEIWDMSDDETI
experimental details: Inhibition of recombinant His-tagged human ATG7 incubated for 105 mins in presence of GST-tagged ATG3 and Flag-tagged Gabarap and measured after 2 hrs by FRET assay relative to control
quantity: pIC50
Give bare numbers, as −log10 of the molar value.

Looking up Cc1cccc(Sc2nn([C@@H]3O[C@H](COS(N)(=O)=O)[C@@H](O)[C@@H]3F)c3ncnc(N)c23)c1 , I found its pIC50 recorded as 7.46

Cited source: BindingDB's records for doi:10.1016/j.bmc.2020.115681
